# Test system: wild-type (AB) zebrafish (Danio rerio)
# ASSAY_EXPLANATION: animal or person
# Format: in vivo
# MEASUREMENT_CONTEXT: zebrafish; apparently MTC / MEC
# Procedure: The movement of larval zebrafish was monitored with the Noldus behavior recording system (Noldus Information Technology, Leesburg VA) and quantified using EthoVision® XT 15 software (Noldus Information Technology, Leesburg VA). […] After 30 minutes, the plate was transferred to the Noldus system and swimming behavior was recorded in 100% light for 30 minutes to measure spontaneous swimming behavior. […]
PROPERTY_MEASURED: Therap. Index

INSERT INTO measurements (compound_string, property_measured, endpoint_result) VALUES
  ('COc1ccc(CN2C(=O)C(=O)c3ccccc32)cc1F', 'Therap. Index', 10),
  ('COc1ccc(CN2C(=O)C(=O)c3ccccc32)cc1I', 'Therap. Index', 10),
  ('O=C1C(=O)N(Cc2cc(F)c(F)c(F)c2)c2ccccc21', 'Therap. Index', 10);

Every entry's value here was drawn from paper PMC10896388.
